Target: MET (human) (Homo sapiens)
Sequence (P08581 25-1390): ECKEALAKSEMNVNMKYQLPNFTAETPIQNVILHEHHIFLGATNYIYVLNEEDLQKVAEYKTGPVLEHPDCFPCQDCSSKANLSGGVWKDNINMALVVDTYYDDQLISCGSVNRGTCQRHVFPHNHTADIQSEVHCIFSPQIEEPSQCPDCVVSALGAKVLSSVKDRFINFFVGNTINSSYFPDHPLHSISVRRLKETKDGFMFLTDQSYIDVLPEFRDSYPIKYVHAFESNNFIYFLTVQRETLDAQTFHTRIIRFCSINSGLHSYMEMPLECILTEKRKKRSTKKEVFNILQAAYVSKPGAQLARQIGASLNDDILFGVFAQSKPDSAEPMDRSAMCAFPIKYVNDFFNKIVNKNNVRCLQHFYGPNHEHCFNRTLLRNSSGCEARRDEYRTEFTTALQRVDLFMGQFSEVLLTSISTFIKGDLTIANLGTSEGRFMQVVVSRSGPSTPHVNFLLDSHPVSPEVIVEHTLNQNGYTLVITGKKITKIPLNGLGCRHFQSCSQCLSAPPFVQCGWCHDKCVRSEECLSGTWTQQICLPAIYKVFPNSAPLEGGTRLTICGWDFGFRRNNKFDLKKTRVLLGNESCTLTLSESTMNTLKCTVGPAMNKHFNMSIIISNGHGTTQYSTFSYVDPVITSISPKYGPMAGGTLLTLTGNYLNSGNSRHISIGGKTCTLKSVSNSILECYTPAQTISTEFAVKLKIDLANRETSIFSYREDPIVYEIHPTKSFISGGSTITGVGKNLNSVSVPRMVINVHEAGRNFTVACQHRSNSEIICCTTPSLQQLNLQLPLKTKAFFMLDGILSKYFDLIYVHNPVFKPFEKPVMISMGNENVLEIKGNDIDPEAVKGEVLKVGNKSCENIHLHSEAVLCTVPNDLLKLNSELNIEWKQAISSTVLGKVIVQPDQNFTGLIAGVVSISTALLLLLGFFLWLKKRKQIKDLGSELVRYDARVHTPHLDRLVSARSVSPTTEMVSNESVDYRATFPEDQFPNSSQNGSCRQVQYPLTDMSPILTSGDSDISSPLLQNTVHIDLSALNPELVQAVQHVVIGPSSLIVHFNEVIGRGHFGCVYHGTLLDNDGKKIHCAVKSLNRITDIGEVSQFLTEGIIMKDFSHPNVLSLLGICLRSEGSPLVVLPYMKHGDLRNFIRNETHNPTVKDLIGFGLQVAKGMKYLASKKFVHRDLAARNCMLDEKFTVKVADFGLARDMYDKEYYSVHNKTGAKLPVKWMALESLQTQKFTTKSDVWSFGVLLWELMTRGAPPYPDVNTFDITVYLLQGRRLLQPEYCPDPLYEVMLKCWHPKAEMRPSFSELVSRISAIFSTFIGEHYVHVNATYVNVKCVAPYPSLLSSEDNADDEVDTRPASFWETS
Experiment: MET (human) AlphaScreen kinase assay, Km of ATP
Assay type: biochemical
Conditions: AlphaScreen, Km of ATP; read-out: Met biochemical IC50
pIC50: −log10 of the molar value.
readout kind: pIC50

Respond only with pIC50 recorded for C[C@@H](Oc1c(N)ncc2c(C3=CCN(C(=O)CO)CC3)coc12)c1c(Cl)ccc(F)c1Cl
> 6.30

Respond only with pIC50 recorded for C[C@@H](Oc1c(N)ncc2c(C3=CCN(C(=O)C4CCCCN4C)CC3)coc12)c1c(Cl)ccc(F)c1Cl (stereo partly shown)
> 6.30

Respond only with pIC50 recorded for Cc1ccc(C(C)Oc2c(N)ncc3c(-c4cnn(C5CCNCC5)c4)coc23)cc1 (stereo not shown)
5.30 to 6.30

Respond only with pIC50 recorded for CC(Oc1c(N)ncc2c(-c3cnn(C4CCNCC4)c3)coc12)c1ccc(C(F)(F)F)cc1 (stereo not shown)
> 6.30

----------
Would you kindly list IC50 for each of these compounds?
Target: RON (human) (Homo sapiens, UniProt Q04912)
Sequence (Q04912 25-1400): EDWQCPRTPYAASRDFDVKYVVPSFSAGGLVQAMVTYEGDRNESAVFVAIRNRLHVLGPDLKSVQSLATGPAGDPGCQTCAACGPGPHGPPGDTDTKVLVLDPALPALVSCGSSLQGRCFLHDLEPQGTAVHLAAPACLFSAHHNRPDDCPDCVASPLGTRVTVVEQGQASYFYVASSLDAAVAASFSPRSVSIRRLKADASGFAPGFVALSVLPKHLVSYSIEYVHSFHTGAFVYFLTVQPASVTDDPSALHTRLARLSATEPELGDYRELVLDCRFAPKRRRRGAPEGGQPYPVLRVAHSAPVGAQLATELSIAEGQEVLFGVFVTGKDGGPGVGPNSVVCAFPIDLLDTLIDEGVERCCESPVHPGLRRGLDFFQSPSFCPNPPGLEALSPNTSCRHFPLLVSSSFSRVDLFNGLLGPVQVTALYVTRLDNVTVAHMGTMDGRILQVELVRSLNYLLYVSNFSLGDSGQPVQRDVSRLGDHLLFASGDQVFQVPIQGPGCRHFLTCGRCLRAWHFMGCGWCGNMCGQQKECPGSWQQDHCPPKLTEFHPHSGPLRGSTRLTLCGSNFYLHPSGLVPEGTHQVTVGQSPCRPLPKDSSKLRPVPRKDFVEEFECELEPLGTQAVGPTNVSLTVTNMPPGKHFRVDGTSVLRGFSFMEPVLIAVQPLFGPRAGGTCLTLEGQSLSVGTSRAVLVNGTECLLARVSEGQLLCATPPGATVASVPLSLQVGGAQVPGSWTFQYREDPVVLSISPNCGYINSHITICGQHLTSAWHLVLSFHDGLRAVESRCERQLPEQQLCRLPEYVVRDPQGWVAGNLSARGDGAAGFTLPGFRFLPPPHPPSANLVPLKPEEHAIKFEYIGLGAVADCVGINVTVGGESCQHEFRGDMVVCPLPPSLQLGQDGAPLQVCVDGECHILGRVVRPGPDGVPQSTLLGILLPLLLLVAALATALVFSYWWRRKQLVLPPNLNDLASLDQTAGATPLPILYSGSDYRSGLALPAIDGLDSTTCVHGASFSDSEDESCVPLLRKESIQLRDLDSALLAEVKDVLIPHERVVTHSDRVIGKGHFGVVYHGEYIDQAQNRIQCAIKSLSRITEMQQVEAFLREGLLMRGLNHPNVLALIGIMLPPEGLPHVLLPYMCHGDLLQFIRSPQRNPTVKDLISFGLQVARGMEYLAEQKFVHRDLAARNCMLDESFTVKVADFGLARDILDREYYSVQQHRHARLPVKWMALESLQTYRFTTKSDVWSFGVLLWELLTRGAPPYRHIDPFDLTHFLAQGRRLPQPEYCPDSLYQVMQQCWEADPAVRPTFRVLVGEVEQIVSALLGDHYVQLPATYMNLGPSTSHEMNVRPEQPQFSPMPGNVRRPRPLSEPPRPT
Assay: RON (human) AlphaScreen kinase assay, Km of ATP
Format: biochemical
Settings: AlphaScreen, Km of ATP; read-out: RON biochemical IC50

Respond only with IC50 recorded for CC(Oc1c(N)ncc2c(-c3cnn(C4CCNCC4)c3)coc12)c1ccccc1Br (stereo not shown) [Example 400]
500 to 5000 nM

Respond only with IC50 recorded for CCNC(=O)c1cc(-c2coc3c(O[C@H](C)c4c(Cl)ccc(F)c4Cl)c(N)ncc23)cs1 [Example 314]
500 to 5000 nM

Respond only with IC50 recorded for C[C@@H](Oc1c(N)ncc2c(-c3ccc(NS(C)(=O)=O)cc3)coc12)c1c(Cl)ccc(F)c1Cl [Example 76]
500 to 5000 nM

Respond only with IC50 recorded for C[C@@H](O)C(=O)N1CC=C(c2coc3c(O[C@H](C)c4c(Cl)ccc(F)c4Cl)c(N)ncc23)CC1 [Example 226]
< 500 nM

Respond only with IC50 recorded for C[C@@H](Oc1c(N)ncc2c(C3=CCN(C(=O)C4CCNCC4)CC3)coc12)c1c(Cl)ccc(F)c1Cl [Example 21]
< 500 nM

Respond only with IC50 recorded for CC(Oc1c(N)ncc2c(-c3cnn(C4CCNCC4)c3)coc12)c1c(Cl)cccc1Br (stereo not shown) [Example 361]
< 500 nM

Respond only with IC50 recorded for CCNC(=O)N1CC=C(c2coc3c(O[C@H](C)c4c(Cl)ccc(F)c4Cl)c(N)ncc23)CC1 [Example 151]
500 to 5000 nM

----------
Target: UniProt:Q04912
Experiment: RON (human) AlphaScreen kinase assay, Km of ATP
Type: biochemical
Conditions: AlphaScreen, Km of ATP; read-out: RON biochemical IC50
Method: Someone skilled in the art will appreciate that a variety of assay formats may be used to determine the activity of the compounds of this invention. For example, AlphaScreen (Amplified Luminescent Proximity Homogeneous Assay) technology was used with the kinases described below. […] Desired compound is added in a final concentration of 1% DMSO with control being vehicle of DMSO alone. […] The plates, incubated for 1 h, are read on an AlphaQuest plate reader.
pIC50: −log10 of the molar value.
readout kind: pIC50

Respond only with pIC50 recorded for C[C@@H](Oc1c(N)ncc2c(-c3cccc(C(=O)NCCN4CCOCC4)c3)coc12)c1c(Cl)ccc(F)c1Cl
5.30 to 6.30

Respond only with pIC50 recorded for C[C@@H](Oc1c(N)ncc2c(C3=CCN(C(=O)C4(N)CC4)CC3)coc12)c1c(Cl)ccc(F)c1Cl
5.30 to 6.30

Respond only with pIC50 recorded for C[C@@H](Oc1c(N)ncc2c(-c3cccc(C(=O)NCCN(C)C)c3)coc12)c1c(Cl)ccc(F)c1Cl
> 6.30

Respond only with pIC50 recorded for Cc1ccc(-c2coc3c(O[C@H](C)c4c(Cl)ccc(F)c4Cl)c(N)ncc23)s1
> 6.30

Respond only with pIC50 recorded for C[C@@H](Oc1c(N)ncc2c(C3=CCN(C(=O)C(F)(F)F)CC3)coc12)c1c(Cl)ccc(F)c1Cl
5.30 to 6.30

Respond only with pIC50 recorded for Cn1c(Cc2ccccc2)ncc(-c2ccc(COc3c(N)ncc4ccoc34)cc2)c1=O
4.70 to 5.30

Respond only with pIC50 recorded for CC(=O)Nc1cccc(-c2coc3c(O[C@H](C)c4c(Cl)ccc(F)c4Cl)c(N)ncc23)c1
5.30 to 6.30

Respond only with pIC50 recorded for CC(Oc1c(N)ncc2c(-c3cnn(C4CCNCC4)c3)coc12)c1ncc(C(F)(F)F)cc1Cl (stereo not drawn)
5.30 to 6.30

Respond only with pIC50 recorded for C[C@@H](Oc1c(N)ncc2c(-c3cnn(CCN4CCOCC4)c3)coc12)c1c(Cl)ccc(F)c1Cl
5.30 to 6.30

Respond only with pIC50 recorded for CC(C)[C@H](O)C(=O)N1CC=C(c2coc3c(O[C@H](C)c4c(Cl)ccc(F)c4Cl)c(N)ncc23)CC1
> 6.30

Respond only with pIC50 recorded for C[C@@H](Oc1c(N)ncc2c(C3=CCN(C(=O)C(C)(C)N)CC3)coc12)c1c(Cl)ccc(F)c1Cl
> 6.30

Respond only with pIC50 recorded for Nc1ncc2ccoc2c1OCc1nnc2ccc(-c3ccccc3)nn12
< 4.70

Respond only with pIC50 recorded for CC(Cc1c(F)cccc1C(F)(F)F)Oc1c(N)ncc2c(-c3cnn(C4CCNCC4)c3)coc12 (stereo not drawn)
5.30 to 6.30

Respond only with pIC50 recorded for C[C@@H](Oc1c(N)ncc2c(-c3ccnc(N4CCNCC4)c3)coc12)c1c(Cl)ccc(F)c1Cl
> 6.30

Respond only with pIC50 recorded for C[C@@H](Oc1c(N)ncc2c(C3=CCN(CC(=O)N(C)C)CC3)coc12)c1c(Cl)ccc(F)c1Cl
5.30 to 6.30

Respond only with pIC50 recorded for C[C@@H](Oc1c(N)ncc2c(C3=CCN(C(=O)[C@@H](N)c4ccccc4)CC3)coc12)c1c(Cl)ccc(F)c1Cl
5.30 to 6.30

Respond only with pIC50 recorded for C[C@@H](Oc1c(N)ncc2c(C3=CCN(C(=O)N4CCNCC4)CC3)coc12)c1c(Cl)ccc(F)c1Cl
> 6.30

Respond only with pIC50 recorded for C[C@@H](Oc1c(N)ncc2c(-c3ccc(N4CCOCC4)nc3)coc12)c1c(Cl)ccc(F)c1Cl
5.30 to 6.30

Respond only with pIC50 recorded for CCS(=O)(=O)Nc1cccc(-c2coc3c(O[C@H](C)c4c(Cl)ccc(F)c4Cl)c(N)ncc23)c1
5.30 to 6.30

Respond only with pIC50 recorded for C[C@@H](Oc1c(N)ncc2c(C3=CCNCC3)coc12)c1c(Cl)ccc(F)c1Cl
5.30 to 6.30

Respond only with pIC50 recorded for Cc1cccc(C)c1C(C)Oc1c(N)ncc2c(-c3cnn(C4CCNCC4)c3)coc12 (stereo not drawn)
5.30 to 6.30

Respond only with pIC50 recorded for CC(Oc1c(N)ncc2c(-c3cnn(C4CCNCC4)c3)coc12)c1c(Cl)ccc2ccccc12 (stereo not drawn)
5.30 to 6.30

Respond only with pIC50 recorded for CC(C)CC(Oc1c(N)ncc2c(-c3cnn(C4CCNCC4)c3)coc12)c1c(Cl)ccc(F)c1Cl (stereo not drawn)
5.30 to 6.30

Respond only with pIC50 recorded for C[C@@H](Oc1c(N)ncc2c(-c3cccc(CN)c3)coc12)c1c(Cl)ccc(F)c1Cl
5.30 to 6.30

Respond only with pIC50 recorded for Cc1cccc(C(C)Oc2c(N)ncc3c(-c4cnn(C5CCNCC5)c4)coc23)c1 (stereo not drawn)
5.30 to 6.30

Respond only with pIC50 recorded for C[C@@H](Oc1c(N)ncc2c(C3=CCN(C(=O)[C@@H](N)Cc4cnc[nH]4)CC3)coc12)c1c(Cl)ccc(F)c1Cl
> 6.30

Respond only with pIC50 recorded for CC(Oc1c(N)ncc2c(-c3cnn(C4CCNCC4)c3)coc12)c1ccccc1F (stereo not drawn)
5.30 to 6.30

Respond only with pIC50 recorded for C[C@@H](Oc1c(N)ncc2c(-c3csc(C(N)=O)c3)coc12)c1c(Cl)ccc(F)c1Cl
5.30 to 6.30

Respond only with pIC50 recorded for CNC(=O)c1cccc(C(C)Oc2c(N)ncc3c(-c4cnn(C5CCNCC5)c4)coc23)c1 (stereo not drawn)
5.30 to 6.30

Respond only with pIC50 recorded for C[C@@H](Oc1c(N)ncc2c(C3=CCN(C=O)CC3)coc12)c1c(Cl)ccc(F)c1Cl
> 6.30

----------
Target: UniProt P08581
Test: MET (human) AlphaScreen kinase assay, Km of ATP
Assay type: biochemical
Conditions: AlphaScreen, Km of ATP; read-out: Met biochemical IC50
Would you kindly list IC50 for each of these compounds?

Respond only with IC50 recorded for C[C@@H](Oc1c(N)ncc2c(C3=CCN(C(=O)[C@]4(C)CCCN4)CC3)coc12)c1c(Cl)ccc(F)c1Cl [Example 160]
< 500 nM

Respond only with IC50 recorded for C[C@@H](Oc1c(N)ncc2c(C3=CCN(CC#N)CC3)coc12)c1c(Cl)ccc(F)c1Cl [Example 321]
< 500 nM

Respond only with IC50 recorded for C[C@@H](Oc1c(N)ncc2c(C3=CCN(C(=O)[C@@H]4CCCNC4)CC3)coc12)c1c(Cl)ccc(F)c1Cl [Example 241]
< 500 nM

Respond only with IC50 recorded for CC(Oc1c(N)ncc2c(-c3cnn(C4CCNCC4)c3)coc12)c1ccccc1C(F)(F)F (stereo not shown) [Example 346]
500 to 5000 nM
